System: Setaria viridis
Assay: Herbicidal pre-emergence action
Type: in vivo
Details: pre-emergence method, 80 g/ha, greenhouse, visual assessment vs untreated controls
reported property: herbicidal effect SETVI (%)
// units = %; emit number, no label

Here's what some known entries look like.
[[record]]
compound = "CCOC(=O)OC1=C(c2c(CC)cc(C)cc2CC)C(=O)C2CC3(CC12)OCC(OC)CO3 (stereo not shown) [I-c-25]"
target_under_test = "Setaria viridis"
data_value = 80

[[record]]
compound = "CCc1cc(C)cc(CC)c1C1=C(O)[C@H]2C[C@@]3(COC(C)(C)O3)C[C@H]2C1=O [I-a-1]"
target_under_test = "Setaria viridis"
data_value = 60

[[record]]
compound = "CCc1cc(C)cc(CC)c1C1=C([O-])C2CC3(CC2C1=O)OCCO3.[Na+] (stereo not shown) [I-f-15]"
target_under_test = "Setaria viridis"
data_value = 90


INPUT: Consider the compound shown here: CCc1cc(C)cc(CC)c1C1=C(OC(=O)OC(C)C)C2CC3(CC2C1=O)OCCS3 (mixture of isomers) [I-c-33] What is its recorded herbicidal effect SETVI?
OUTPUT: 60
